All values here come from paper PMC9321663.

# Test system: SOX17 (endoderm marker) in RUES2-GLR cells
# test-summary: DevTox GLR-Endo assay: decrease in percent SOX17-positive cells (AEID 3094, Sox17_dn)
# experimental-setup: Homo sapiens, read-out: ga (winning model), tcpl plot AEID3094, gain parameter of winning curve fit (log concentration, µM axis), hit calls only (converted)
// classify: if (AC50 < 4 µM) criterion met else criterion not met

Could you please tell me whether AC50 recorded for CO[C@H]1/C=C/O[C@@]2(C)Oc3c(C)c(O)c4c(O)c(c(/C=N/N5CCN(C)CC5)c(O)c4c3C2=O)NC(=O)/C(C)=C\C=C\[C@H](C)[C@H](O)[C@@H](C)[C@@H](O)[C@@H](C)[C@H](OC(C)=O)[C@@H]1C [Rifampicin] is less than 4 µM?
criterion not met

Could you please tell me whether AC50 recorded for O=c1[nH]c(=O)n([C@H]2C[C@H](O)[C@@H](CO)O2)cc1Br [5-Bromo-2’-deoxyuridine] is less than 4 µM?
criterion met

Could you please tell me whether AC50 recorded for O=c1[nH]cc(F)c(=O)[nH]1 [5-Fluorouracil] is less than 4 µM?
criterion not met

Could you please tell me whether AC50 recorded for O=C1Cc2cc(CCN3CCN(c4nsc5ccccc45)CC3)c(Cl)cc2N1 [Ziprasidone] is less than 4 µM?
criterion met

Could you please tell me whether AC50 recorded for `O=C1NC(=O)C(c2ccccc2)(c2ccccc2)N1` is less than 4 µM?
criterion not met
